molecular target: Bcl-xL, Q07817; assay: peptide SPOT array, c-Myc-tagged receptor at 1 uM or 100 nM, anti-c-Myc-Cy3
Sequence (Q07817 1-209): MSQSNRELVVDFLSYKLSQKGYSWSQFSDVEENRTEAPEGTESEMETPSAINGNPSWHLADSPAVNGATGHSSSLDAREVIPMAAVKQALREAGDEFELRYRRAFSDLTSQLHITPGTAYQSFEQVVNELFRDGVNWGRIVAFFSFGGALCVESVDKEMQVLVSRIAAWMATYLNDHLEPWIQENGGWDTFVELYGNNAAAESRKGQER
MEASUREMENT_LABEL: SPOT signal as a fraction of Bim BH3's signal on the same receptor and array

Worked cases, SPOT signal as a fraction of Bim BH3's signal on the same receptor and array given:
LKELDLSGNSLSHSAVKSLCKTLRRP [NLRP1]
0.4
LGLGELAGLTVANELDSLTYDIANNK [STRN]
0.02
TNISWRACDHLRCILCDFLVVSYDDY [C8orf37]
0.03

[a] LTETSLISGNDHRIGDITSCSVLWLN [FBXW5]
[b] GTAVAYRGAHLRGRLRAVYNTFRAAP [XXXX]
[c] HSEITPYATDLAQTSEKLIPHLHKLP [CCDC129]
[d] RMIVDCVSSHDKKTGDGAKTFIIFLC [BBS10]
[e] DVGTGAGLLEIKKIGDEYFTFITDCK [CCT3]
Ask | Ranking field: SPOT signal as a fraction of Bim BH3's signal on the same receptor and array; order: falling. Would you mind listing the labels in the order requested?
Reply | b, d, a, c, e
(b: 2.49, d: 0.17, a: 0.06, c: 0.02, e: 0.01)
